assay: protein stability index of a GFP-peptide fusion (GPS, HEK-293T) (PSI 1-6); higher = more stable; settings: treatment: MLN4924 1 uM, 8 h; c terminus: a fixed tail appended;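 further: 24-mer peptide tiles fused after GFP, lentivirally expressed, FACS-sorted into six equal bins by GFP/DsRed ratio, decoded by Illumina sequencing, PSI is the read-weighted mean bin number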
reported-property: protein stability index
Response field accepts a number only; no unit should be typed.

Study these solved cases before continuing.
> print(dat)
                      chain.sequence        reported.property  value
1    SVGCIFAEMFRRKPLFCGNSEADQ [CDK4]  protein stability index   2.58
2   KRKSEVERAVKRMRHLSTGTMTGL [MATN2]  protein stability index   3.12
3  DYFERNWEPRRDMWVRFRAFEAAR [ZSWIM9]  protein stability index   2.66

Reported protein stability index for IFNHERFFWHLTLPERRGTCADRD [CASP6] : what is it?
2.93

Reported protein stability index for AEHEITELTATFTKFDRDGNRILD [PKD2L1] : what is it?
4.95

Reported protein stability index for PCSGSVSLQPRRSIAFRLRLASFD [GMCL1] : what is it?
2.24

###

Measured protein stability index values are reported for all entries that follow.
assay: protein stability index of a GFP-peptide fusion (GPS, HEK-293T) (PSI 1-6); higher = more stable; details: treatment: MLN4924 1 uM, 8 h; c terminus: a fixed tail appended
Response field accepts a number only; no unit should be typed.

Study these solved cases before continuing.
> print(dat)
                      chain.sequence  value
1  LTCNNYKNKMMVCQVGGIEALVRT [CTNNB1]   2.23
2  GPVGTDFKPLNSTPATTTEPPKPT [ZNF207]   5.19

Proceeding to the next sequence to report its protein stability index.
Reported protein stability index for INTLITSGADTAKCGIHSMFPLHL [ANKRD44] : what is it?
2.64

###

Measured protein stability index values are reported for all entries that follow.
test: protein stability index of a GFP-peptide fusion (GPS, HEK-293T) (PSI 1-6); higher = more stable; settings: treatment: DMSO; c terminus: a fixed tail appended
Response field accepts a number only; no unit should be typed.

> print(dat)
                        chain.sequence  value
 1    IKRLWKDSGVQACFNRSREYQLND [GNAI1]    2.4
 2    RFQDGDNILEKEVLPPIHAYGNRT [FEM1B]   3.96
 3    TYWQCGQYLGVGPGAHGRFMPQGA [RSAD1]   2.27
 4  PPARGPRMSYGGSTCHAYSNTRDR [RBMY1A1]    4.1
 5    FYKDWWNSTSYSNYYRTWNVVVHD [SOAT1]   2.46
 6    IMNIIDIVSILPYFITLGTDLAQQ [KCNA4]   3.37
 7   SLLVHGFKPACMSEIKNLERYMCS [TENT5D]   2.48
 8   ETCSCGYYLHPLPAGAEYCSSARH [SCNN1D]   3.52
 9   CEKTFRDKNTLKDHMRKKQHRKIN [ZNF277]   3.77
10     SSYSLSDMVSNIELPTRIHEEVYF [MIA2]   2.35

Reported protein stability index for FPRLNRNKYMVTDGAAYIGNFDWV [PLD5] : what is it?
2.32

Reported protein stability index for VTHREGAPPLPGAESFPGSQVMGS [PLEKHN1] : what is it?
4.63

Reported protein stability index for AEVRHEIQDGTIHLYIYSIHSIPK [KMT2E] : what is it?
2.1

Reported protein stability index for GRTHQWKPLYPDDYVHISSKPCDL [ADAMTSL2] : what is it?
3.25

Reported protein stability index for ELLCCTNVSTKEGIHLALVELLKN [INTS4] : what is it?
2.19

###

Measured protein stability index values are reported for all entries that follow.
test: protein stability index of a GFP-peptide fusion (GPS, HEK-293T) (PSI 1-6); higher = more stable; conditions: treatment: MLN4924 1 uM, 8 h; c terminus: a fixed tail appended

Study these solved cases before continuing.
> print(dat)
                     chain.sequence        reported.property  value
1   ARQETKEMARKVIEHCSNFKEENM [ZER1]  protein stability index   4.57
2  LFYFFLYQYCSIHCSDRKQVRNIA [CSTF3]  protein stability index   2.61
3   ASESEHIPKPQSTGWFGGGFTSYL [MIA2]  protein stability index   2.69
4  SLSPSPLGSSAASTALERPSFLSQ [FCHO1]  protein stability index   3.98
5  MATATPVPPRMGSRAGGPTTPLSP [LMNB1]  protein stability index   4.24

Reported protein stability index for NTNSDPLDPSFPVEFVRHGDIIRL [POMT2] : what is it?
2.86

Reported protein stability index for VSGKCEPIGCDGVLFSTHTLDKCG [ADAMTSL2] : what is it?
3.35

###

assay: protein stability index of a GFP-peptide fusion (GPS, HEK-293T) (PSI 1-6); higher = more stable; conditions: treatment: DMSO; c terminus: a fixed tail appended
reported-property: protein stability index
Response field accepts a number only; no unit should be typed.

Study these solved cases before continuing.
> print(dat)
                     chain.sequence  value
1  HITKLKPWSLFDVLVEKYGWPHED [SRPK2]   2.23
2  VNDKRRKKSGEKEQHISKCKKAFR [KMT2E]   3.76
3   RDHHSTHYRASEEEPEYGEEIKGY [CHGB]    5.1

Proceeding to the next sequence to report its protein stability index.
Reported protein stability index for EKQMEEKRRANQKSSAQGPIPWFL [PPEF2] : what is it?
3.71

###

test: protein stability index of a GFP-peptide fusion (GPS, HEK-293T) (PSI 1-6); higher = more stable; details: treatment: MLN4924 1 uM, 8 h; c terminus: a fixed tail appended
reported-property: protein stability index

> print(dat)
                     chain.sequence        reported.property  value
1    GKKKISKADIGAPSGFKHVSHVGW [WAS]  protein stability index    3.1
2  LNTRSQAPLLRWVLTLSFLVATVA [HMOX1]  protein stability index   2.15
3  CAFVGALGGAAFLGTAIFIEADRR [SPNS1]  protein stability index   2.36
4  MAAGQNGHEEWVGSAYLFVESSLD [TRADD]  protein stability index   2.65

Proceeding to the next sequence to report its protein stability index.
Reported protein stability index for AVKLADFGLAIEVEGEQQAWFGFA [CAMK2A] : what is it?
2.26

###

assay: protein stability index of a GFP-peptide fusion (GPS, HEK-293T) (PSI 1-6); higher = more stable; conditions: treatment: DMSO; c terminus: a fixed tail appended
Measured protein stability index values are reported for all entries that follow.

> print(dat)
                     chain.sequence        reported.property  value
1  PGSMSEVQELCKQLHAKIDAAEEE [TNNI2]  protein stability index   5.38
2  FEFEVRVCDSCHEAITDEERAPTA [WDFY2]  protein stability index   3.48
3  KYLTYDQLRKQKKKTGKSSTTALG [ELOA2]  protein stability index   3.35

Reported protein stability index for RKGELVTASKAIIEKEYQPHVIVS [ADD1] : what is it?
3.62

###

Measured protein stability index values are reported for all entries that follow.
experiment: protein stability index of a GFP-peptide fusion (GPS, HEK-293T) (PSI 1-6); higher = more stable; details: treatment: MLN4924 1 uM, 8 h; c terminus: a fixed tail appended
Response field accepts a number only; no unit should be typed.

> print(dat)
                       chain.sequence        reported.property  value
1     DLNKDKPVIPAAALAGYTGSGPIQ [ETS1]  protein stability index   4.14
2  ACGGHVELAALLIERGASLEEVND [ANKRD17]  protein stability index   3.73
3     PPVRPAGYLLSFHTPGGQNQEILL [TNXB]  protein stability index   2.38
4   HLFAGAEVILLVVMAYDRYMAICK [OR4A15]  protein stability index   3.02

Proceeding to the next sequence to report its protein stability index.
Reported protein stability index for VQNGTYLQRVLQNCPWPMSCPGSS [EMID1] : what is it?
3.17

###

assay: protein stability index of a GFP-peptide fusion (GPS, HEK-293T) (PSI 1-6); higher = more stable; settings: treatment: MLN4924 1 uM, 8 h; c terminus: a fixed tail appended
Please use met whenever protein stability index is not below 3, and not met whenever it is.

> print(dat)
                     chain.sequence  category.label
1  FLTTAIRPHGIFGPRDPQLVPILI [NSDHL]         not met
2  WMQANYDPLSDSDSMTSQAKPEAL [ELOA2]             met
3  QDLAFWYGPRWQEVIPYTPAMQRY [HMOX1]         not met

Determine whether measured protein stability index meets or exceeds 3 for APDLVLNAEMVQQTTYLEDRPMFM [LOXL2]
met

Determine whether measured protein stability index meets or exceeds 3 for VMVRWNKSLEWSPWNCILLTKDEA [IQUB]
not met

These measurements were taken from the supplement of paper PMC10567573.
